assay method text: Pharmacokinetic study, single dose IP or oral gavage
Format: in vivo, C57Bl/6 male mice
condition set: male, C57Bl/6, mouse, 20 mg/kg PO, plasma, mean ± SD, read-out: AUCINF_obs (converted)
test readout: AUC(0-inf)
Write down the value, and be sure its unit follows.

For CC(C)=CC(O)CC(C)[C@H]1CC[C@@]2(C)[C@@H]3[C@@H](O)C=C4[C@@H](CC[C@H](O)C4(C)C)[C@]3(C=O)CC[C@]12C (stereo partly shown) the molecule record lists AUC(0-inf) as 688 ng·h/mL

====

assay method text: Pharmacokinetic study, single dose IP or oral gavage
Type: in vivo, C57Bl/6 male mice
condition set: male, C57Bl/6, mouse, 20 mg/kg PO, plasma, mean ± SD
Description: To evaluate the pharmacokinetic (PK) profile of M-I, a single dose (20 mg/kg) was given to C57Bl/6 male mice by either intraperitoneal injection (IP group; n = 3) or oral ga-vage (oral group; n = 3). A dose of 20 mg/kg was chosen based on previous publications. […] The pharmacokinetic (PK) study of M-I was performed in male C57Bl/6 mice. […] M-I concentration was determined using liq-uid chromatography-mass spectrometry/mass spectrometry (LC-MS/MS) as described earlier.
test readout: Tmax

For CC(C)=CC(O)CC(C)[C@H]1CC[C@@]2(C)[C@@H]3[C@@H](O)C=C4[C@@H](CC[C@H](O)C4(C)C)[C@]3(C=O)CC[C@]12C (stereo partly shown) the compound record lists Tmax as 1 h
